# Tested on: HT-29
# Test details: NCI tumour cell line growth inhibition, 48 h
Activity calls are given as the source filed them. Cut-off read from the data, not from the text of the source: active = GI50 up to about 1.1 µM and inactive = higher.
Parameter: GI50

                                    molecule           meas_value
 0  C=C(C=O)c1c2c(nc3ccccc13)C(=O)c1ccccc1C2=O     0.47 µM (active)
 1  CSc1c(C(=O)Nc2ccc(Cl)cc2)c(N)n(N)c(=O)c1C#N  > 100 µM (inactive)
 2  CC(C)c1cccc(C(C)C)c1NC(=O)/C(Cc1nc2ccc(Cl)cc2nc1O)=N\NC(=O)C[N+](C)(C)C  > 100 µM (inactive)
 3  CCCCSC1CCSc2c1ccc1ccccc21 (stereo unspecified)   71.6 µM (inactive)
 4  C=C1C2CCCC1C1(S(C)(=O)=O)CCCCC21O (stereo unspecified)  > 100 µM (inactive)
 5           COc1ccc(Br)c(N/N=C2\CCCNC2=O)c1  > 100 µM (inactive)
 6  O=C(O)C1CC(c2ccccc2)=NN1c1ccccc1 (stereo unspecified)   34.2 µM (inactive)
 7  NC(=S)c1cccc(C2Nc3ccccc3O2)c1 (stereo unspecified)   92.9 µM (inactive)
 8  CC1CC/C(=C\c2ccc(N(C)C)cc2)C2=C1C(c1ccc(N(C)C)cc1)NC(=S)N2 (stereo unspecified)  > 100 µM (inactive)
 9  COC1(OC)CCC2C1C1CCC(OC)(OC)C21 (stereo unspecified)   > 50 µM (inactive)
10  C[C@]12CCC(=O)C=C1CC[C@@H]1C2CC[C@]2(C)Nc3c(cnn3-c3ccccc3)CC12 (stereo partly specified)  > 100 µM (inactive)

###

# Test system: IGROV-1
# Test details: NCI tumour cell line growth inhibition, 48 h
Calls of active or inactive are those of the source. Rule as the data show it: active = GI50 up to about 1.1 µM and inactive = higher. Square brackets hold non-standard residues; d marks the D form. Peptide text beside a SMILES is read from it. pGlu = O=C1CC[C@@H](C(=O)O)N1; Thz = O=C(O)[C@@H]1CSCN1
// GI50 lookup, one value per entry
Parameter: GI50

In [3]: df
Out[3]:
                                   molecule  target_desc           meas_value
0  O=C1CC[C@@H](C(=O)N2CSC[C@H]2C(=O)O)N1 [PIDOTIMOD] ([pGlu]-[Thz]-OH)      IGROV-1  > 100 µM (inactive)
1  C=CCCN1CCc2c([nH]c3ccccc23)C1C(=O)O (stereo not given)      IGROV-1  > 100 µM (inactive)
2  CC(C)(Br)C(Br)CC/C(=C/CBr)CBr.CC(C)(Br)C(Br)CC/C(=C\CBr)CBr (stereo not given)      IGROV-1   3.08 µM (inactive)
3  C=CCn1c(=O)c2ccccc2[n+]2c(-c3cccc([N+](=O)[O-])c3)csc12      IGROV-1   50.5 µM (inactive)
4  CCCCC1Cc2ccccc2-c2n1c1ccccc1[n+]2C (stereo not given)      IGROV-1   17.3 µM (inactive)

###

// GI50 lookup, one value per entry
# System: CAKI-1
# Test details: NCI tumour cell line growth inhibition, 48 h
Calls of active or inactive are those of the source. No stated cut-off is given here; in the data, active = GI50 up to about 1.1 µM and inactive = higher.
Parameter: GI50

>>> print(df.to_string())
                                   molecule  parameter           meas_value
0  C[C@]12Cc3cn[nH]c3C(=O)C1CC[C@@H]1C2CC[C@@]2(C)C1CC[C@@H]2O (stereo not given in full)       GI50  > 100 µM (inactive)
1  COc1ccc(/C=C2\N/C(=N\N=C/C(O)C(O)C(O)C(O)CO)NC2=O)cc1 (stereo not given)       GI50  > 100 µM (inactive)
2  CCC(CC)C(=O)OC[n+]1cccc(-c2c(COC(=O)NC(C)C)c(COC(=O)NC(C)C)c3n2CCC3)c1       GI50   49.4 µM (inactive)
3  C=C1CC(COc2ccc3c(C)c(C)c(=O)oc3c2C)(c2ccccc2)OC1=O (stereo not given)       GI50    1.5 µM (inactive)
4           COc1ccc(Br)c(N/N=C2\CCCNC2=O)c1       GI50   36.3 µM (inactive)
5  COC(=O)C(C(=O)C(=O)Nc1ccc(Br)cc1)c1nc2ccc(Cl)cc2nc1O (stereo not given)       GI50  > 100 µM (inactive)
6  Cc1cc(C)c(O)c(CN2CCN(C(C)C)CCN(C(C)C)CC2)c1       GI50   75.2 µM (inactive)
7  COC1CCC(OC)C(C2(C3CC(OC)CCC3OC)OC(=O)c3ccccc32)C1 (stereo not given)       GI50  > 100 µM (inactive)
8   C/C(=N\O)c1ccc(Nc2nc3ccccc3c3occc23)cc1       GI50   3.15 µM (inactive)
9  CCOC(=O)c1sc2nc1CSc1sc(=S)sc1SCc1nc(sc1C(=O)OCC)-c1nc(c(C(=O)OCC)s1)CSc1sc(=S)sc1SCc1nc-2sc1C(=O)OCC       GI50   > 10 µM (inactive)
